Origin of values: patent US10167284B2

# MEASUREMENT TARGET: human muscarinic M4 receptor (Homo sapiens, UniProt P08173)
# Construct: expressed in transfected cells
# ASSAY OVERVIEW: Alphascreen Surefire phospho-ERK1/2 functional assay, M4
# Format: cell-based
# CONDITION LABEL: CHO cells stably expressing human M4; phospho-ERK1/2; read-out: pEC50 M4 (converted)
Class (by EC50) -- band A (below 30 nM), band B (30 nM to below 100 nM), band C (100 nM or more)

Which EC50 category applies to CCOC(=O)N1CC2(CCC(N3CCC4(CC3)OC(=O)N(CC)C4(C)C)C2)C1 (racemic) [8-4 racemic] here?
band A

Another molecule: CCC1NC(=O)CC12CCN(C1CC3(CCN(C(=O)OC)C3)C1)CC2 (single isomer, unassigned) [3-4 Isomer 4]
band A

Another molecule: CCOC(=O)N1CCC2(CC(N3CCC4(CC3)CN(C(C)C)C(=O)O4)C2)C1 (single isomer, unassigned) [4-8 Isomer 2]
band C

Another molecule: CCOC(=O)N1CCC2(CC(N3CCC4(CC3)OC(=O)N(CC#N)C4(C)C)C2)C1 (single isomer, unassigned) [4-42 Isomer 2]
band C

Another molecule: CCOC(=O)N1CC2(CCC(N3CCC4(CC3)OC(=O)N(CC)C4CC)C2)C1 (mixture of isomers) [8-2 mixture of diastereomers]
band A

Another molecule: COC(=O)N1CCC2(CC(N3CCC4(CC3)CNC(=O)O4)C2)C1 (single isomer, unassigned) [4-1 Isomer 2]
band C

Another molecule: CCOC(=O)N1CCC2(CC(N3CCC4(CC3)OC(=O)N(CC)C4CC)C2)C1 (single isomer, unassigned) [4-22 Isomer 3]
band B

Another molecule: CCCN1C(=O)OC2(CCN(C3CC4(CCN(C(=O)OCC)C4)C3)CC2)C1CC (single isomer, unassigned) [4-23 Isomer 1]
band C

Another molecule: CCOC(=O)N1CCC2(CC(N3CCC4(CNC(=O)C4)C(F)C3)C2)C1 (single isomer, unassigned) [3-9 Isomer 2]
band C

Another molecule: CCOC(=O)N1CCC2(CC(N3CCC4(CC3)OC(=O)N(C)C4CC)C2)C1 (single isomer, unassigned) [4-20 Isomer 3]
band B

Another molecule: CCOC(=O)N1CCC2(CC(N3CCC4(CC3)OC(=O)N(CC)C4CC)C2)C1 (single isomer, unassigned) [4-22 Isomer 1]
band C

Another molecule: CCOC(=O)N1CC2(CCC(N3CCC4(CC3)OC(=O)NC4(C)C)C2)C1 (single isomer, unassigned) [8-3 Isomer 2]
band A

Another molecule: CCOC(=O)N1CC2(CCC(N3CCC4(CC3)OC(=O)NC4CC)C2)C1 (mixture of isomers) [8-1 mixture of diastereomers]
band A

Another molecule: CCCN1C(=O)OC2(CCN(C3CC4(CCN(C(=O)OCC)C4)C3)CC2)C1CC (single isomer, unassigned) [4-23 Isomer 2]
band C

Another molecule: CCOC(=O)N1CCC2(CC(N3CCC4(CC3)OC(=O)NC43CCCC3)C2)C1 (single isomer, unassigned) [4-31 Isomer 2]
band B

Another molecule: CCOC(=O)N1CCC2(CC(N3CCC4(CC3)CC(=O)NC4C)C2)C1 (single isomer, unassigned) [3-3 Isomer 2]
band C

Another molecule: CCOC(=O)N1CCC2(CC(N3CCC4(CC3)OC(=O)NC43CC(F)(F)C3)C2)C1 (single isomer, unassigned) [4-30 Isomer 1]
band C

Another molecule: CCOC(=O)N1CCC2(CC(N3CCC4(CC3)OC(=O)NC4CC)C2)C1 (single isomer, unassigned) [4-12 Isomer 3]
band A

Another molecule: CCOC(=O)N1CCC2(CC(N3CCC4(CC3)OC(=O)N(C)C4CC)C2)C1 (single isomer, unassigned) [4-20 Isomer 2]
band C

Another molecule: CCOC(=O)N1CCC2(CC(N3CCC4(CC3)OC(=O)N3CCCC34)C2)C1 (single isomer, unassigned) [4-44 Isomer 3]
band B

Another molecule: CCOC(=O)N1CCC2(CC(N3CCC4(CC3)OC(=O)NC4CC)C2)C1 (single isomer, unassigned) [4-12 Isomer 1]
band B

Another molecule: CCOC(=O)N1CCC2(CC(N3CCC4(CC3)CNC(=O)O4)C2)C1 (single isomer, unassigned) [4-3 Isomer 2]
band B

Another molecule: [2H]C([2H])([2H])OC(=O)N1CCC2(CC(N3CCC4(CC3)CNC(=O)O4)C2)C1 (single isomer, unassigned) [4-2 Isomer 2]
band C

###

# MEASUREMENT TARGET: human muscarinic M1 receptor (Homo sapiens, UniProt P11229)
# Construct: expressed in transfected cells
# Sequence (P11229 1-460): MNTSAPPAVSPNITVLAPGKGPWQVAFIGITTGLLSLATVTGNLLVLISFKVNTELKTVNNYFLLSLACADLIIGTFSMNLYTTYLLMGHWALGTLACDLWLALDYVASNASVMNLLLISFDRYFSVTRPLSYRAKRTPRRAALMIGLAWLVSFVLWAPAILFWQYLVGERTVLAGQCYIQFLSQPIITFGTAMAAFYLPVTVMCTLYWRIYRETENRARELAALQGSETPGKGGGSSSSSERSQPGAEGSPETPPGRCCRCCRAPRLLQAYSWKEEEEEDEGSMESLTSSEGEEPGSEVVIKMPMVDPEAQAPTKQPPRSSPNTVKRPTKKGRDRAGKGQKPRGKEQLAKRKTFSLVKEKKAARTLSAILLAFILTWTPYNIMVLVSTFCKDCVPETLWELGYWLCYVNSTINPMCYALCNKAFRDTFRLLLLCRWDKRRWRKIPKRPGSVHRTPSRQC
# ASSAY OVERVIEW: Alphascreen Surefire phospho-ERK1/2 functional assay, M1
# Type: cell-based
# CONDITION LABEL: CHO cells stably expressing human M1; Emax relative to ACh
ATTRIBUTE MEASURED: M1 % Emax cf. ACh

1. CCOC(=O)N1CCC2(CC(N3CCC4(CC3)OC(=O)N(CC)C4CC)C2)C1 (single isomer, unassigned) [4-22 Isomer 2]    (1) %

###

Consider the following compounds; for each one, report its EC50.
# MEASUREMENT TARGET: human muscarinic M4 receptor (Homo sapiens)
# Construct: expressed in transfected cells
# ASSAY OVERVIEW: Alphascreen Surefire phospho-ERK1/2 functional assay, M4
# Format: cell-based
# CONDITION LABEL: CHO cells stably expressing human M4; phospho-ERK1/2; read-out: pEC50 M4 (converted)
Your answer should be a plain number; it is taken to be in nM.

Returns the measured EC50 for the input compound. Input: CCOC(=O)N1CCC2(CC(N3CCC4(CC3)OC(=O)NC4Cc3ccccn3)C2)C1 (single isomer, unassigned) [4-19 Isomer 2 (racemic)]
794

Another compound: CCOC(=O)N1CCC2(CC(N3CCC4(CC3)OC(=O)NC4CC(F)(F)F)C2)C1 (single isomer, unassigned) [4-17 Isomer 1 (racemic)]
31.6

Another compound: CCC1NC(=O)CC12CCN(C1CC3(CCN(C(=O)OC)C3)C1)CC2 (single isomer, unassigned) [3-4 Isomer 3]
25.1

Another compound: CCCN1N(C)C(=O)CC12CCN(C1CC3(CCN(C(=O)OCC)C3)C1)CC2 (single isomer, unassigned) [6-10 Isomer 2]
39.8

Another compound: CCOC(=O)N1CC2(CC(N3CCC4(CC3)OC(=O)N(CC)C4(C)C)C2)C1
501

###

# MEASUREMENT TARGET: human muscarinic M4 receptor (Homo sapiens)
# Construct: expressed in transfected cells
# Sequence (P08173 1-479): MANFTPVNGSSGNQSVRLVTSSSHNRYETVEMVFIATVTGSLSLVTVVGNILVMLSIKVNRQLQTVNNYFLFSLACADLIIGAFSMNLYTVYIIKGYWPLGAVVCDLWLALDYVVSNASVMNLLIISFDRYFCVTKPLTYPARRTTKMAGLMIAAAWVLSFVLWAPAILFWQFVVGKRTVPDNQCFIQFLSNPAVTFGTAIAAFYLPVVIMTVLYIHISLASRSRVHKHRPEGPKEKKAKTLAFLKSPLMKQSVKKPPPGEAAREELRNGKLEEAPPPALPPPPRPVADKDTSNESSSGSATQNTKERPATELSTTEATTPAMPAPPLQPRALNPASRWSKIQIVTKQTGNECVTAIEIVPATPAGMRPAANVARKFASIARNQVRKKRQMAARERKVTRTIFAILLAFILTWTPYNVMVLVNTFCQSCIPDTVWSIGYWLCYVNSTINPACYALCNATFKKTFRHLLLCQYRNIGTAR
# ASSAY OVERVIEW: Alphascreen Surefire phospho-ERK1/2 functional assay, M4
# Type: cell-based
# CONDITION LABEL: CHO cells stably expressing human M4; Emax relative to ACh
ATTRIBUTE MEASURED: M4 % Emax cf. ACh

1) CCOC(=O)N1CCC2(CC(N3CCC4(CC3)OC(=O)NC4CC)C2)C1 (single isomer, unassigned) [4-12 Isomer 2]    (1) %
2) CCOC(=O)N1CCC2(CC(N3CCC4(CC3)OC(=O)N(CC)C4CC)C2)C1 (single isomer, unassigned) [4-22 Isomer 2]    (2) %
